From: ChEMBL document CHEMBL1201862

run_description: viability of uninfected HEp-2 cells – cell-based, HTS, cytotoxicity control for RSV inhibitor project, dose response (AID 2410)
Format: functional
assay_conditions: human respiratory syncytial virus
Activity calls are given as the source filed them.
Consider the following molecules; for each one, report its CC50.

Please report the measured CC50 for `Cc1ccc(Nc2cc(C)nc(-c3ccccc3O)n2)cc1` 14.6 µM (active)

Please report the measured CC50 for `O=C(Nc1ccccc1Cl)c1cccc(COc2cc(Cl)ccc2Cl)c1` > 50 µM (active)

Please report the measured CC50 for `Sc1ncnc2c1sc1nc(-c3ccccc3)c3c(c12)CCCC3` 16.9 µM (active)

Please report the measured CC50 for `COc1ccccc1-c1c(C)nn2c(N)c(-c3ccccc3)cnc12` 24.2 µM (active)

====

target_system: Prothrombin (Bos taurus, UniProt P00735)
run_description: thrombin protease inhibitors – biochemical, fluorescence polarization, uHTS hits, dose response (AID 602369)
Assay type: functional
The source made the active and inactive calls.
Consider the following compounds; for each one, report its IC50.

Please report the measured IC50 for NC(=O)CC(NC(=O)c1ccc(Br)cc1)c1ccc(NC2CCCCCC2)c([N+](=O)[O-])c1 (stereo unspecified) 88.5 µM (active)

Please report the measured IC50 for `COc1cc(/C=C2/SC(=S)N(c3c(C)n(C)n(-c4ccccc4)c3=O)C2=O)ccc1O` 68.1 µM (active)

Please report the measured IC50 for `COc1ccc(C=C2SC(=S)N(CCCC(=O)Nc3ccc(C(=O)O)c(O)c3)C2=O)cc1OC` 35.3 µM (active)

Please report the measured IC50 for `Cc1ccc(-n2cccc2/C=C2/C(=N)N3C(=NC2=O)SN=C3S(C)(=O)=O)cc1Cl` 21.1 µM (active)

Please report the measured IC50 for `COc1cc(NS(=O)(=O)c2ccc(NC(=S)NC(=O)/C=C/c3ccco3)cc2)ncn1` 20.5 µM (active)

Please report the measured IC50 for `Sc1nnc(-c2cc(-c3ccccc3)[nH]n2)n1/N=C/c1cccc(Cl)c1` 33.8 µM (active)

====

target_system: Streptokinase A (Streptococcus pyogenes serotype M1)
Sequence (P10520 whole entry): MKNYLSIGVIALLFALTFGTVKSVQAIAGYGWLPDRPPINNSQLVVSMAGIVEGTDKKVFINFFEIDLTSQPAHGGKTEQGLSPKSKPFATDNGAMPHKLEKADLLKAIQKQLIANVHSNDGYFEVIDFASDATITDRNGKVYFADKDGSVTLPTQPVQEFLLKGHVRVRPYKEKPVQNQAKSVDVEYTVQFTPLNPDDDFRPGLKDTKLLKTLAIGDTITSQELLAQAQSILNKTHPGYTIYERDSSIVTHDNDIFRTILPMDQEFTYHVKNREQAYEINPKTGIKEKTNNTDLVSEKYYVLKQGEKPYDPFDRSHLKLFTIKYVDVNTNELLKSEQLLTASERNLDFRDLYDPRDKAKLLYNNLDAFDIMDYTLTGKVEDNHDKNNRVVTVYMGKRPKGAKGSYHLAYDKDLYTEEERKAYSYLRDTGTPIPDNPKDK
run_description: viability-normalized secreted streptokinase activity reduction – plasminogen activation absorbance, OD405, dose response (AID 1914);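 note: secreted streptokinase activity via plasminogen activation per viability signal from cell pellet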
Type: functional, Streptococcus pyogenes M1 GAS
Active and inactive are the calls of the source.
measured_metric: EC50

Please report the measured EC50 for Cc1ccsc1C1C=C(c2cccc(Br)c2)Nc2ncnn21 (centres undefined) > 150 µM (not active)

Please report the measured EC50 for `O=C(CN1c2ccccc2Sc2ccccc21)NNC(=O)Nc1ccc(Cl)c(Cl)c1` > 150 µM (not active)

Please report the measured EC50 for `Oc1c(CN2CCc3ccccc3C2)cc(Cl)c2cccnc12` > 150 µM (not active)

Please report the measured EC50 for `CCN(CC)c1ccc(-c2nn3c(-c4ccccc4OC)nnc3s2)cc1` > 150 µM (not active)

Please report the measured EC50 for CCC1(C)Cc2ccccc2-c2nc(-c3ccccc3)oc(=O)c21 (centres undefined) 13.2 µM (active)

Please report the measured EC50 for `O=C(Nc1nnc(-c2ccc(Br)cc2)o1)c1ccco1` > 150 µM (not active)

Please report the measured EC50 for `COc1ccc(C)cc1NC(=O)CNC(c1ccccc1)c1ccccc1` > 150 µM (not active)

Please report the measured EC50 for `Sc1nnc(-c2cc(-c3ccccc3)[nH]n2)n1/N=C/c1cccc(Cl)c1` > 150 µM (not active)

Please report the measured EC50 for `O=C(CN1CCCC1)Nc1ccc(NC(=O)Nc2ccccc2)cc1` > 150 µM (not active)

Please report the measured EC50 for `CCn1c(COc2ccc(C)cc2)nnc1SCc1ccc(C#N)cc1` > 150 µM (not active)

Please report the measured EC50 for `O=C(/C=C/c1ccccc1)NCCc1ccccc1` 48.7 µM (active)

Please report the measured EC50 for `S=C(NCC1CCCCC1)Nc1ccc(Oc2ccccc2)cc1` 4.05 µM (active)

Please report the measured EC50 for `COc1ccc(CN2CCc3ccc(NC(=O)c4ccncc4)cc3C2)c(F)c1` > 150 µM (not active)

Please report the measured EC50 for `Cc1cc(=O)oc2c3c(cc(OCC(=O)NC4CC4)c12)OC(C)(C)CC3` > 150 µM (not active)

Please report the measured EC50 for O=C(/C=C/c1ccccc1)NC(NC(=S)Nc1cccc(Cl)c1)C(Cl)(Cl)Cl (centres undefined) > 150 µM (not active)

Please report the measured EC50 for `O=C(/C=C/c1ccccc1Cl)c1ccccc(=O)c1O` > 150 µM (not active)

Please report the measured EC50 for Cc1nnc(SCC2=C(C(=O)O)N3C(=O)C(NC(=O)c4cc(F)c(F)cc4Cl)C3SC2)s1 (centres undefined) > 150 µM (not active)

Please report the measured EC50 for CN1CCN(C2Cc3ccc(Cl)cc3Sc3ccc(F)cc32)CC1 (centres undefined) > 150 µM (not active)

Please report the measured EC50 for `CCOc1ccc(-c2nnc3ccc(SC(C)C)nn23)cc1` > 150 µM (not active)

Please report the measured EC50 for `Cc1cc(C)c2c(C(C)(C)C)nn(-c3ccccc3)c2n1` 30.2 µM (active)

Please report the measured EC50 for `Cc1nn(CC(=O)Nc2c(F)c(F)cc(F)c2F)c(=O)c2cccn12` > 150 µM (not active)

Please report the measured EC50 for `Cc1cccc(NC(=O)c2nc[nH]c2C(=O)N[C@@H](Cc2ccccc2)C(=O)OC(C)(C)C)c1` > 150 µM (not active)

Please report the measured EC50 for `COC(=O)c1ccc(C(=O)OC)c(NC(=O)CN(C)Cc2cccc(Cl)c2Cl)c1` 13.9 µM (active)

Please report the measured EC50 for `CC(C)Oc1ccc(C(=O)Nc2nnc(C3=COCCO3)o2)cc1` > 150 µM (not active)
